Hello, the source for this data is patent US20180250358A1, in case you need it.

# target.under.test: T1, GHRH receptor of human pituitary membranes (human, UniProt Q02643)
# T1 sequence: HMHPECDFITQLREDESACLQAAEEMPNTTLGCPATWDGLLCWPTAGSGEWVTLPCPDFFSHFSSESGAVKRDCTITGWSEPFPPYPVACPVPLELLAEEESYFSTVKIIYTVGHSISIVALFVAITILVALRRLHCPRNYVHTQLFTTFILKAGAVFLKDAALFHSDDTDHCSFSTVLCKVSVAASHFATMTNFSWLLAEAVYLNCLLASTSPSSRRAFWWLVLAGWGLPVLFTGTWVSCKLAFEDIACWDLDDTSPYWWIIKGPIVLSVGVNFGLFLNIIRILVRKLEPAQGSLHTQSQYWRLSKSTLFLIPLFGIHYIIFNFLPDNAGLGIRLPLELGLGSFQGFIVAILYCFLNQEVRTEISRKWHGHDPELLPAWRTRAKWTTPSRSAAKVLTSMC
# assay.text: competition vs 125I-JV-1-42, human pituitary membranes;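 also: pituitaries used were normal human glands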
pIC50: −log10 of the molar value. Non-standard residues stand in square brackets, D forms with d. No end group written: not given here. *: point of attachment. Phe(F5) = N[C@@H](Cc1c(F)c(F)c(F)c(F)c1F)C(=O)O; NMeY = CN[C@@H](Cc1ccc(O)cc1)C(=O)O; Agmatine = N=C(N)NCCCCN*; Nle = CCCC[C@H](N)C(=O)O; Orn = NCCC[C@H](N)C(=O)O; Abu = CC[C@H](N)C(=O)O
metric.name: pIC50

• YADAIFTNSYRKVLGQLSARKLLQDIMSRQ (Dat^1; D-Ala^2; Fpa5^6; Orn^12; Abu^15; Orn^21; Nle^27; Gab^30 (in place of Gln^30); C-terminal -NH2) [P-25502 [Dat^1, D-Ala^2, Fpa5^6, Orn^12, Abu^15, Orn^21, Nle^27, Gab^30]hGHRH(1-30)NH2] = 9.48

[I] [NMeY][dA]DAIFTNSYR[Orn]VL[Abu]QLSAR[Orn]LLQDI[Nle]DR-NHEt [P-28421 [N-Me-Tyr^1, D-Ala^2, Orn^12, Abu^15, Orn^21, Nle^27, Asp^28]hGHRH(1-29)NH-CH2-CH3]
[II] [NMeY][dA]DAI[Phe(F5)]TNSYR[Orn]VL[Abu]QLSAR[Orn]LLQDI[Nle]D[Agmatine] [P-20359 [N-Me-Tyr^1, D-Ala^2, Fpa5^6, Orn^12, Abu^15, Orn^21, Nle^27, Asp^28, Agm^29]hGHRH(1-29)NH2]
Larger number for pIC50: I , or II ? // respond with label for picked entry
I
(I: 8.83, II: 8.52)
